// provenance: patent US20240216392A1

# protocol details: Phase 1 multiple-dose study, plasma PK
# Format: in vivo, human
# condition description: both sexes, human, plasma, oral, 6 mg, Day 10; Cohort 1 (6 mg TID); read-out: Plasma AUCtau, geometric mean (geometric CV %)
property name: AUC (ng·h/mL)
Field: numeric (ng·h/mL). Do not append units.

Entry `C[C@H]1CN2CCNCc3ccc(C(=O)NCC(F)F)c1c32` ; AUC = 82.6

* * *

# protocol details: Phase 1 multiple-dose study, plasma PK
# Format: in vivo, human
# condition description: both sexes, human, plasma, oral, 3 mg, Day 1, single 3 mg dose, Cohort 1; read-out: plasma Tmax, median
property name: Tmax (h)
# value in h; strip the unit string

Tmax for C[C@H]1CN2CCNCc3ccc(C(=O)NCC(F)F)c1c32 [Compound 1] is 1

* * *

# protocol details: Phase 1 multiple-dose study, plasma PK
# Type: in vivo, human
# condition description: both sexes, human, plasma, oral, 12 mg, Day 8; Cohort 2 (12 mg TID); read-out: Plasma Tmax, median (minimum, maximum)
property name: Tmax (h)
Record the value in h, omitting the unit from your answer.

C[C@H]1CN2CCNCc3ccc(C(=O)NCC(F)F)c1c32 [Compound 1] has a reported Tmax of 1.01

* * *

# protocol details: Phase 1 multiple-dose study, plasma PK
# Format: in vivo, human
# condition description: both sexes, human, plasma, oral, 12 mg, Day 9; Cohort 2 (12 mg TID); read-out: Plasma AUCtau, geometric mean (geometric CV %)
# Experimental: Subjects were enrolled to 1 of 2 dosage regimens. Subject enrollment was stratified by sex to ensure approximate sex balance in each cohort. Morning doses were administered following a standard light breakfast (e.g., milk and cereal, toast, and fruit) on all days. TID dosing (three times a day) was approximately 8 hours apart. Subjects fasted from midnight onwards, until the morning breakfast each day. […]
property name: AUC
Answer with the number, then the unit.

Item: `C[C@H]1CN2CCNCc3ccc(C(=O)NCC(F)F)c1c32` | AUC: 194 ng·h/mL

* * *

# protocol details: Phase 1 multiple-dose study, plasma PK
# Assay type: in vivo, human
# condition description: both sexes, human, plasma, oral, 12 mg, Day 9; Cohort 3 (12 mg BID); read-out: Plasma Cmax, geometric mean (geometric CV %)
property name: Cmax (ng/mL)
Quick note: give the figure in ng/mL, leave out the unit.

Entry `C[C@H]1CN2CCNCc3ccc(C(=O)NCC(F)F)c1c32` , Cmax reported as 37.2

* * *

# protocol details: Phase 1 multiple-dose study, plasma PK
# Assay type: in vivo, human
# condition description: both sexes, human, plasma, oral, 12 mg, Day 8; Cohort 2 (12 mg TID); read-out: Plasma T1/2, mean (SD) (converted)
property name: half-life

Kindly note the recorded half-life for C[C@H]1CN2CCNCc3ccc(C(=O)NCC(F)F)c1c32 [Compound 1] , which is 285 min

* * *

# protocol details: Phase 1 multiple-dose study, plasma PK
# Assay type: in vivo, human
# condition description: both sexes, human, plasma, oral, 12 mg, Day 10; Cohort 3 (12 mg BID); read-out: Plasma Tmax, median (minimum, maximum)
property name: Tmax (h)
Could you give me the number in h? Just the number is fine.

Short answer for `C[C@H]1CN2CCNCc3ccc(C(=O)NCC(F)F)c1c32` : Tmax was 1

* * *

# protocol details: Phase 1 multiple-dose study, plasma PK
# Format: in vivo, human
# condition description: both sexes, human, plasma, oral, 12 mg, Day 9; Cohort 2 (12 mg TID); read-out: Plasma Cmax, geometric mean (geometric CV %)
property name: Cmax (ng/mL)
Use ng/mL as the unit, but write only the number.

Data point: C[C@H]1CN2CCNCc3ccc(C(=O)NCC(F)F)c1c32 [Compound 1] ; Cmax = 44.5

* * *

# protocol details: clinical
# condition description: both, human, CSF, oral, 12 mg, CSF Tmax, median (minimum, maximum), Day 11; Cohort 2 (12 mg TID)
property name: Tmax
Express your answer as a number followed by its unit.

Looking up `C[C@H]1CN2CCNCc3ccc(C(=O)NCC(F)F)c1c32` , I found its Tmax recorded as 3.04 h

* * *

# protocol details: Phase 1 multiple-dose study, plasma PK
# Type: in vivo, human
# condition description: both sexes, human, plasma, oral, 12 mg, Day 9; Cohort 2 (12 mg TID); read-out: Plasma Tmax, median (minimum, maximum)
# Method: Subjects were enrolled to 1 of 2 dosage regimens. Subject enrollment was stratified by sex to ensure approximate sex balance in each cohort. Morning doses were administered following a standard light breakfast (e.g., milk and cereal, toast, and fruit) on all days. TID dosing (three times a day) was approximately 8 hours apart. Subjects fasted from midnight onwards, until the morning breakfast each day. […]
property name: Tmax (min)
Give a bare numeral; the unit min is implied.

Per the records, this compound ( C[C@H]1CN2CCNCc3ccc(C(=O)NCC(F)F)c1c32 [Compound 1] ) has Tmax equal to 55.2

* * *

# protocol details: clinical
# condition description: both, human, CSF / free drug in plasma, oral, 18 mg, CSF/P Ctrough, mean (SD), CSF to free drug plasma ratio; Day 11; Cohort 4B (18 mg BID)
property name: Kp

// field: Kp; key: `C[C@H]1CN2CCNCc3ccc(C(=O)NCC(F)F)c1c32` ; value = 1.69

* * *

# protocol details: Phase 1 multiple-dose study, plasma PK
# Type: in vivo, human
# condition description: both sexes, human, plasma, oral, 12 mg, Day 8; Cohort 3 (12 mg BID); read-out: Plasma Tmax, median (minimum, maximum)
property name: Tmax

The recorded Tmax for entry C[C@H]1CN2CCNCc3ccc(C(=O)NCC(F)F)c1c32 [Compound 1] equals 1.01 h

* * *

# protocol details: Phase 1 multiple-dose study, plasma PK
# Assay type: in vivo, human
# condition description: both sexes, human, plasma, oral, 12 mg, Day 10; Cohort 3 (12 mg BID); read-out: Plasma AUCtau, geometric mean (geometric CV %)
property name: AUC
Please report the result as a number followed by the unit.

C[C@H]1CN2CCNCc3ccc(C(=O)NCC(F)F)c1c32 [Compound 1] has a reported AUC of 154 ng·h/mL

* * *

# protocol details: clinical
# condition description: both, human, CSF, oral, CSF Tmax, Day 11, across cohorts
property name: Tmax

Note to self: Tmax recorded for C[C@H]1CN2CCNCc3ccc(C(=O)NCC(F)F)c1c32 [Compound 1] was 2.52 to 3.06 h

* * *

# protocol details: Phase 1 multiple-dose study, plasma PK
# Type: in vivo, human
# condition description: both sexes, human, plasma, oral; Day 1, single 6 mg dose, Cohorts 2, 3, 4A, 4B; read-out: plasma geometric mean AUC0-inf
property name: AUC(0-inf)

Consider `C[C@H]1CN2CCNCc3ccc(C(=O)NCC(F)F)c1c32` . Its measured AUC(0-inf) is 36.5 to 51.9 ng·h/mL

* * *

# protocol details: Phase 1 multiple-dose study, plasma PK
# Type: in vivo, human
# condition description: both sexes, human, plasma, oral, 15 mg, Day 10; Cohort 4A (15 mg BID); read-out: Plasma Tmax, median (minimum, maximum)
property name: Tmax (h)
I only need the number, in h, no unit after it.

According to the records, this compound `C[C@H]1CN2CCNCc3ccc(C(=O)NCC(F)F)c1c32` displays Tmax of 1.06

* * *

# protocol details: Phase 1 multiple-dose study, plasma PK
# Assay type: in vivo, human
# condition description: both sexes, human, plasma, oral, 18 mg, Day 8; Cohort 4B (18 mg BID); read-out: Plasma T1/2, mean (SD) (converted)
# Description: Subjects were enrolled to 1 of 2 dosage regimens. Subject enrollment was stratified by sex to ensure approximate sex balance in each cohort. Morning doses were administered following a standard light breakfast (e.g., milk and cereal, toast, and fruit) on all days. TID dosing (three times a day) was approximately 8 hours apart. Subjects fasted from midnight onwards, until the morning breakfast each day. […]
property name: half-life
Answer format: number, then unit.

Entry `C[C@H]1CN2CCNCc3ccc(C(=O)NCC(F)F)c1c32` — recorded half-life = 5.51 h

* * *

# protocol details: Phase 1 multiple-dose study, plasma PK
# Type: in vivo, human
# condition description: both sexes, human, plasma, oral, 15 mg, Day 9; Cohort 4A (15 mg BID); read-out: Plasma T1/2, mean (SD) (converted)
property name: half-life (h)
Quick reminder: number only, in h, skip the unit.

Input `C[C@H]1CN2CCNCc3ccc(C(=O)NCC(F)F)c1c32` . Output half-life: 5.51

* * *

# protocol details: Phase 1 multiple-dose study, plasma PK
# Format: in vivo, human
# condition description: both sexes, human, plasma, oral, 18 mg, Day 8; Cohort 4B (18 mg BID); read-out: Plasma AUCtau, geometric mean (geometric CV %)
property name: AUC
Value and unit, in that order.

Input `C[C@H]1CN2CCNCc3ccc(C(=O)NCC(F)F)c1c32` . Output AUC: 230 ng·h/mL

* * *

# protocol details: Phase 1 multiple-dose study, plasma PK
# Type: in vivo, human
# condition description: both sexes, human, plasma, oral, 6 mg, Day 8; Cohort 1 (6 mg TID); read-out: Plasma Tmax, median (minimum, maximum)
property name: Tmax (h)
Give your result in h as a bare value.

// recorded Tmax for `C[C@H]1CN2CCNCc3ccc(C(=O)NCC(F)F)c1c32` : 1.54
